These measurements were taken from ChEMBL document CHEMBL3232987.

Overview of reported MIC across a group of compounds:
Test system: Staphylococcus aureus
Assay: Antibacterial activity against methicillin-resistant Staphylococcus aureus ATCC 700699 after 24 hrs by spectrophotometric analysis
Type: functional, organism-based
Details: Staphylococcus aureus, ATCC 700699, 24 h
Express the result in µg/mL but write the number alone.

Below are worked cases with known answers.
Per the records, this compound ( CC(C)c1ccc(C(c2nnnn2C(C)(C)C)N2CCN(c3cc4c(cc3F)c(=O)c(C(=O)O)cn4Cc3ccc(C(F)(F)F)cc3)CC2)cc1 (configuration not stated) ) has MIC equal to 1.6

Short answer for CCn1cc(C(=O)O)c(=O)c2cc(F)c(N3CCN(C(c4ccccc4)c4nnnn4C(C)(C)C)CC3)cc21 (configuration not stated) : MIC was 8.3

Entry CCn1cc(C(=O)O)c(=O)c2cc(F)c(N3CCN(C(c4ccco4)c4nnnn4C4CCCCC4)CC3)cc21 (configuration not stated) ; MIC = 8.2

// recorded MIC for CCn1cc(C(=O)O)c(=O)c2cc(F)c(N3CCN(C(c4ccc(OC)c5ccccc45)c4nnnn4C4CCCCC4)CC3)cc21 (configuration not stated) : 9

Now let's try a different one.
Please fill in: MIC reported for CCn1cc(C(=O)O)c(=O)c2cc(F)c(N3CCN(C(c4ccc(OC)c(OC)c4OC)c4nnnn4C4CCCCC4)CC3)cc21 (configuration not stated) = 28.9

###

System: Staphylococcus aureus
Assay: Antibacterial activity against Staphylococcus aureus ATCC 25923 by NCCLS two-fold dilution method
Format: functional
Details: Staphylococcus aureus, ATCC 25923
In this section, each of the molecules is paired with its reported MIC.
Numeric answer only, unit µg/mL assumed.

Worked cases, answers included:
The value of MIC measured for the molecule CC(C)(C)n1nnnc1C(c1ccc(F)cc1)N1CCN(c2cc3c(cc2F)c(=O)c(C(=O)O)cn3Cc2ccc(C(F)(F)F)cc2)CC1 (stereo not given) turned out to be 6.25

Sample O=C(O)c1cn(Cc2ccc(C(F)(F)F)cc2)c2cc(N3CCN(C(c4ccc(F)cc4)c4nnnn4C4CCCCC4)CC3)c(F)cc2c1=O (stereo not given) ; MIC observed: 12.5

For COc1ccc(C(c2nnnn2C(C)(C)C)N2CCN(c3cc4c(cc3F)c(=O)c(C(=O)O)cn4Cc3ccc(C(F)(F)F)cc3)CC2)c(OC)c1OC (stereo not given) the molecule record lists MIC as 50

For reference, reported MIC for CCn1cc(C(=O)O)c(=O)c2cc(F)c(N3CCN(C(c4ccco4)c4nnnn4C(C)(C)C)CC3)cc21 (stereo not given) stands at 0.78

// sample COc1ccc(C(c2nnnn2C(C)(C)C)N2CCN(c3cc4c(cc3F)c(=O)c(C(=O)O)cn4Cc3ccc(C(F)(F)F)cc3)CC2)c2ccccc12 (stereo not given) , its MIC was 50

Documented MIC of CCn1cc(C(=O)O)c(=O)c2cc(F)c(N3CCN(C(c4ccccc4)c4nnnn4C(C)(C)C)CC3)cc21 (stereo not given) : 0.39

Value of MIC reported for the molecule COc1ccc(C(c2nnnn2C2CCCCC2)N2CCN(c3cc4c(cc3F)c(=O)c(C(=O)O)cn4Cc3ccc(C(F)(F)F)cc3)CC2)c(OC)c1OC (stereo not given) is 50

So, O=C(O)c1cn(Cc2ccc(C(F)(F)F)cc2)c2cc(N3CCN(C(c4cccc5ccccc45)c4nnnn4C4CCCCC4)CC3)c(F)cc2c1=O (stereo not given) ? Its MIC was 50

// MIC lookup, molecule = CCn1cc(C(=O)O)c(=O)c2cc(F)c(N3CCN(C(c4ccncc4)c4nnnn4C4CCCCC4)CC3)cc21 (stereo not given) , result: 1.56

Value of MIC reported for the molecule CCn1cc(C(=O)O)c(=O)c2cc(F)c(N3CCN(C(c4cccc5ccccc45)c4nnnn4C(C)(C)C)CC3)cc21 (stereo not given) is 1.56

---
Summary for this molecule, CCn1cc(C(=O)O)c(=O)c2cc(F)c(N3CCN(C(c4ccc(F)cc4)c4nnnn4C4CCCCC4)CC3)cc21 (stereo not given) : MIC is 1.56

The reported value for CCn1cc(C(=O)O)c(=O)c2cc(F)c(N3CCN(C(c4cccc5ccccc45)c4nnnn4C4CCCCC4)CC3)cc21 (stereo not given) in terms of MIC is 3.12

Kindly note the recorded MIC for O=C(O)c1cn(Cc2ccc(C(F)(F)F)cc2)c2cc(N3CCN(C(c4ccco4)c4nnnn4C4CCCCC4)CC3)c(F)cc2c1=O (stereo not given) , which is 0.78

The measured MIC associated with CC(C)(C)n1nnnc1C(c1ccco1)N1CCN(c2cc3c(cc2F)c(=O)c(C(=O)O)cn3Cc2ccc(C(F)(F)F)cc2)CC1 (stereo not given) reads 50

Summary for this molecule, O=C(O)c1cn(Cc2ccc(C(F)(F)F)cc2)c2cc(N3CCN(C(c4ccncc4)c4nnnn4C4CCCCC4)CC3)c(F)cc2c1=O (stereo not given) : MIC is 50

###

Test system: Staphylococcus aureus
Test: Antibacterial activity against methicillin-resistant Staphylococcus aureus ATCC 700699 after 24 hrs by spectrophotometric analysis
Format: functional, organism-based
Details: Staphylococcus aureus, ATCC 700699, 24 h
Below is a list of entries, each paired with its recorded MIC value.

Kindly note the recorded MIC for O=C(O)c1cn(Cc2ccc(C(F)(F)F)cc2)c2cc(N3CCN(C(c4ccc(F)cc4)c4nnnn4C4CCCCC4)CC3)c(F)cc2c1=O (stereo not drawn) , which is > 50 µg/mL

Reported MIC of COc1ccc(C(c2nnnn2C2CCCCC2)N2CCN(c3cc4c(cc3F)c(=O)c(C(=O)O)cn4Cc3ccc(C(F)(F)F)cc3)CC2)c(OC)c1OC (stereo not drawn) : > 50 µg/mL

Continuing:
MIC reading for O=C(O)c1cn(Cc2ccc(C(F)(F)F)cc2)c2cc(N3CCN(C(c4cccc5ccccc45)c4nnnn4C4CCCCC4)CC3)c(F)cc2c1=O (stereo not drawn) : > 50 µg/mL

###

Test system: Staphylococcus aureus
Experiment: Antibacterial activity against gentamicin-resistant Staphylococcus aureus ATCC 33592 after 24 hrs by spectrophotometric analysis
Type: functional, organism-based
Conditions: Staphylococcus aureus, ATCC 33592, 24 h
Reported values of MIC for individual entries

Given item O=C(O)c1cn(Cc2ccc(C(F)(F)F)cc2)c2cc(N3CCN(C(c4cccc5ccccc45)c4nnnn4C4CCCCC4)CC3)c(F)cc2c1=O (stereo not drawn) , the value recorded as its MIC is > 50 µg/mL

More entries:
response.value for COc1ccc(C(c2nnnn2C2CCCCC2)N2CCN(c3cc4c(cc3F)c(=O)c(C(=O)O)cn4Cc3ccc(C(F)(F)F)cc3)CC2)c(OC)c1OC (stereo not drawn) (field: MIC) = > 50 µg/mL

Given item COc1ccc(C(c2nnnn2C2CCCCC2)N2CCN(c3cc4c(cc3F)c(=O)c(C(=O)O)cn4Cc3ccc(C(F)(F)F)cc3)CC2)c2ccccc12 (stereo not drawn) , the value recorded as its MIC is > 50 µg/mL

###

System: Staphylococcus aureus
Experiment: Antibacterial activity against gentamicin-resistant Staphylococcus aureus ATCC 33592 after 24 hrs by spectrophotometric analysis
Format: functional, organism-based
Details: Staphylococcus aureus, ATCC 33592, 24 h; read-out: IC50
METRIC_NAME: IC50 (µg/mL)
A number alone suffices; assume µg/mL.

// CCn1cc(C(=O)O)c(=O)c2cc(F)c(N3CCN(C(c4ccc(C(C)C)cc4)c4nnnn4C4CCCCC4)CC3)cc21 (stereo unspecified) : IC50 value = 1.5

# IC50 (compound: O=C(O)c1cn(Cc2ccc(C(F)(F)F)cc2)c2cc(N3CCN(C(c4ccco4)c4nnnn4C4CCCCC4)CC3)c(F)cc2c1=O (stereo unspecified) ) is 0.4

The compound CCn1cc(C(=O)O)c(=O)c2cc(F)c(N3CCN(C(c4ccc(OC)c5ccccc45)c4nnnn4C(C)(C)C)CC3)cc21 (stereo unspecified) showed IC50 equal to 50

###

This section presents compounds with their documented log10 of IC50 values.
Test system: Staphylococcus aureus
Assay: Antibacterial activity against Staphylococcus aureus ATCC 25923 after 24 hrs by spectrophotometric analysis
Format: functional, organism-based
Conditions: Staphylococcus aureus, ATCC 25923, 24 h; read-out: IC50
Hello, just confirming the data are log10 of IC50 with units of µg/mL.

Some compounds with known log10 of IC50 results, for comparison:
Per the reported Staphylococcus aureus data, CCn1cc(C(=O)O)c(=O)c2cc(F)c(N3CCN(C(c4ccc(OC)c5ccccc45)c4nnnn4C4CCCCC4)CC3)cc21 (centres undefined) has log10 of IC50 of 0.23

Entry O=C(O)c1cn(Cc2ccc(C(F)(F)F)cc2)c2cc(N3CCN(C(c4ccc(F)cc4)c4nnnn4C4CCCCC4)CC3)c(F)cc2c1=O (centres undefined) , Staphylococcus aureus data, log10 of IC50 value: 0.72

Entry CCn1cc(C(=O)O)c(=O)c2cc(F)c(N3CCN(C(c4ccc(OC)c5ccccc45)c4nnnn4C(C)(C)C)CC3)cc21 (centres undefined) , tested on Staphylococcus aureus, has a reported log10 of IC50 of 0.85

More entries:
The compound COc1ccc(C(c2nnnn2C(C)(C)C)N2CCN(c3cc4c(cc3F)c(=O)c(C(=O)O)cn4Cc3ccc(C(F)(F)F)cc3)CC2)c2ccccc12 (centres undefined) on Staphylococcus aureus: log10 of IC50 was 1.70

Case CCn1cc(C(=O)O)c(=O)c2cc(F)c(N3CCN(C(c4ccc(OC)c(OC)c4OC)c4nnnn4C4CCCCC4)CC3)cc21 (centres undefined) , Staphylococcus aureus, log10 of IC50 recorded as -0.43

// compound CCn1cc(C(=O)O)c(=O)c2cc(F)c(N3CCN(C(c4ccc(OC)c(OC)c4OC)c4nnnn4C(C)(C)C)CC3)cc21 (centres undefined) , assay Staphylococcus aureus, log10 of IC50 value: -0.40
